- system-tested: Fibroblast growth factor 2 (Homo sapiens) (UniProt P09038)
- Sequence (P09038 whole entry, looked up): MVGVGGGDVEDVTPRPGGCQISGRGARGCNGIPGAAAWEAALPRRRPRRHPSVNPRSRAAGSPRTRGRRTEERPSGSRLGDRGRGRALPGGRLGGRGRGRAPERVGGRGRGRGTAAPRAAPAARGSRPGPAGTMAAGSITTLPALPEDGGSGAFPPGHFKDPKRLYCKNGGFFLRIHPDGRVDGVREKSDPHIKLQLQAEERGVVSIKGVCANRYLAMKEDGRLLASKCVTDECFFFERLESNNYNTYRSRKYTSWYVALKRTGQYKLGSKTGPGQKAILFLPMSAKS
- assay-method-text: basic fibroblast growth factor binding to printed compounds – biochemical, small-molecule microarray, 635/667 nm fluorescence, primary screen (AID 1133)
- particulars: FGF2, fluorescence 635/667, higher = more signal
Classify by composite z-score. Ranges: one: < -0.2; two: ≥ -0.2 and < 1; three: ≥ 1

molecule	class-label
O=C1N(CCS(=O)(=O)c2ccccc2)Cc2ccccc2C[C@@]12COC(c1ccc(OCCCO)cc1)=N2	two
CCOC(=O)C[C@H]1[C@H](OC(=O)Cc2ccc3c(c2)OCO3)[C@@H](NC(=O)c2ccccc2)c2cc(OCCCO)ccc2N1C(=O)c1ccc2ccccc2n1	two
C=CC[C@]1(C(=O)N(C)C)N=C(c2ccc(OCCCO)cc2)O[C@H]1c1ccccc1	two
COC(=O)C(CC#Cc1ccc2c(c1)[C@]1(C(=O)N2)[C@H](c2ccc(O)cc2)N2[C@H](c3ccccc3)[C@H](c3ccccc3)OC(=O)[C@H]2[C@@H]1C(N)=O)C(=O)OC	one
CN(C)C(=O)[C@@]1(Cc2ccccc2N=[N+]=[N-])N=C(c2ccc(OCCCO)cc2)O[C@H]1c1ccccc1N=[N+]=[N-]	two
COc1ccc([Si](C)(C)[C@@H]2[C@@H](CCO)O[C@]3(C(=O)N(Cc4ccccc4)c4ccc(N5C(=O)COc6ccccc65)cc43)[C@H]2C)cc1	two

Sort into band: `CC(C)CNC(=O)[C@@]1(C)c2ccccc2C(=O)N(Cc2ccccc2)[C@H]1c1ccc(CO)cc1`
one

Could you tell me which band CN1C(=O)C2C=CC(C(O)c3cccc4ccccc34)N(NC(=O)OC(C)(C)C)C2C1=O (stereo not drawn) belongs to?
one

Category of `COC(=O)[C@@]1(Cc2ccc(OC)cc2)[C@H]2c3cc(C(=O)N(C)C)n(Cc4cc(F)c(F)c(F)c4)c3C[C@H]2CN1C(=O)c1ccccc1` :
one

Category lookup for the molecule `O=C1N(CCS(=O)(=O)c2ccccc2)c2ccccc2[C@H]2OC(c3ccc(OCCCO)cc3)=N[C@@]12CCS(=O)(=O)c1ccccc1`
three

Which composite z-score category applies to CCOc1cc(C(O)C2C=CC3C(=O)NC(=O)C3N2Nc2ccccn2)ccc1O (stereo not drawn) here?
two

Consider `CCCNC(=O)[C@@]1(Sc2ccc(C)cc2)CC(=O)N(Cc2ccccc2)[C@@H]1c1ccc(CO)cc1I` . To which composite z-score class does it belong?
three

State the band of `COc1ccc([Si](C)(C)[C@@H]2[C@@H](CC(=O)N(CCO)Cc3ccccc3)O[C@]3(C(=O)N(Cc4ccc(N5CCOC5=O)cc4)c4ccccc43)[C@H]2C)cc1`
three

Just checking, what class would you give `OCc1ccc(-c2cc[n+](Cc3cccc(OC(F)(F)F)c3)cc2)cc1` here?
three

Categorize the following entry: `COc1ccc(C#Cc2ccc3c(c2)[C@]2(C(=O)N3)[C@H](C(N)=O)[C@H]3C(=O)O[C@H](c4ccccc4)[C@H](c4ccccc4)N3[C@@H]2c2ccc(O)cc2)cc1`
two

Returns: class label. Input: O=C1C2C=CC(C(O)c3ccccn3)N(Nc3ccccc3)C2C(=O)N1c1ccccc1 (stereo not drawn)
one

Bin this entry: `COCCOC(=O)N1C(=O)[C@@]2(c3cc(C#CCCO)ccc31)[C@H](c1ccc(OCCO)cc1)N1[C@H](c3ccccc3)[C@H](c3ccccc3)OC(=O)[C@H]1[C@@H]2C(=O)N1CCc2cc(OC)c(OC)cc2C1`
three

Which category fits this record: `CCCC=C(CCC)[C@@H](NS(=O)(=O)c1ccccc1)c1ccc(C(F)(F)F)cc1`
two
